test system: cultured tumor cell lines; conditions: Table 1

Compound	Cytotoxicity
CCC1(O)C(=O)OCc2c1cc1n(c2=O)Cc2cc3c(N)c4c(cc3nc2-1)OCO4 [9-NH2-10,11-MD-CPT(S)]	Active
CC[C@@]1(O)C(=O)OCc2c1cc1n(c2=O)Cc2cc3c(N)cccc3nc2-1 [9-NH2-CPT(S)]	Active
CC[C@@]1(O)C(=O)OCc2c1cc1n(c2=O)Cc2cc3ccccc3nc2-1 [Camptothecin (CPT), Camptothecin]	Active
